biological target: β5i subunit of human iCP (Homo sapiens, UniProt P20618+P28062); construct: purchased Boston Biochem, Inc., Cambridge, MA, USA; assay: Inhibition of β5i activity (RA at 10 µM, IC50, IC50 shift), Suc-LLVY-AMC; assay type: biochemical; conditions: 30 min pre-incubation, SDS activator; read-out: IC50 (µM), β5i
Binarize IC50 at 2 µM; below is Criterion met, at or above is Criterion not met.

Ask: Is it true that IC50 reported for COc1cccc2oc(C#N)nc12 [Compound 6] is less than 2 µM?
Reply: Criterion not met

Ask: Is it true that IC50 reported for N#Cc1nc2cccc(O)c2o1 [Compound 13] is less than 2 µM?
Reply: Criterion not met

Ask: Is it true that IC50 reported for CC(=O)Oc1ccc2oc(C#N)nc2c1 [Compound 15] is less than 2 µM?
Reply: Criterion not met

Ask: Is it true that IC50 reported for CC(C)C[C@H](NC(=O)CCn1c(C#N)nc2ccccc21)B1O[C@@H]2C[C@@H]3C[C@@H](C3(C)C)[C@]2(C)O1 [Compound 30] is less than 2 µM?
Reply: Criterion met

Ask: Is it true that IC50 reported for N#Cc1nc2cc(O)ccc2o1 [Compound 11] is less than 2 µM?
Reply: Criterion not met

###

target: hBChE (Homo sapiens, UniProt P06276); construct: gift of Xavier Brazzolotto, Florian Nachon and José Dias (IRBA, Brétigny-sur-Orge, France); test: Cholinesterase assay (Ellman), hBChE; assay type: biochemical; details: 30 min pre-incubation, read-out: Residual activity [%] ± SD, hBChE
Sequence (P06276 29-602): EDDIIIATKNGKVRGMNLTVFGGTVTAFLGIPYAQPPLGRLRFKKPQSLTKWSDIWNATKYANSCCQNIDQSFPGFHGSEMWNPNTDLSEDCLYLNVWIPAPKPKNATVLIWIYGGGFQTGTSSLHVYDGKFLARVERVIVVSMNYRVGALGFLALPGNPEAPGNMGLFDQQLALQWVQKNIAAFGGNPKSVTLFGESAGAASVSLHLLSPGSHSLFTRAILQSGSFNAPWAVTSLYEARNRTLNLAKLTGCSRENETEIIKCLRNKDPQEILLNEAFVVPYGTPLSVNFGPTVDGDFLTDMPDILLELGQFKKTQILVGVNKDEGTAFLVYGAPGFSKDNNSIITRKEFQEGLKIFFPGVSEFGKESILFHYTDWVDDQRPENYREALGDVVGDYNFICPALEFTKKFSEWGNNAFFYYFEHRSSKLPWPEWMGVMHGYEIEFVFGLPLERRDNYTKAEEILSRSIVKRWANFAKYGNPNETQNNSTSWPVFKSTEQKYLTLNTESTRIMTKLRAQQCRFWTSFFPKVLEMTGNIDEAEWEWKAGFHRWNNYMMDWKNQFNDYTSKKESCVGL
Kindly state remaining activity at 100 µM for each of the entries shown.

Ask: Form entry - test system: hBChE (Homo sapiens, UniProt P06276); read-out: remaining activity at 100 µM; molecule: "CC(C)C[C@H](NC(=O)CCCn1c(C#N)nc2ccccc21)B1O[C@@H]2C[C@@H]3C[C@@H](C3(C)C)[C@]2(C)O1"
Reply: > 50%

Ask: Form entry - test system: hBChE (Homo sapiens, UniProt P06276); read-out: remaining activity at 100 µM; molecule: "N#Cc1nc2cccc(O)c2o1"
Reply: > 50%

Ask: Form entry - test system: hBChE (Homo sapiens, UniProt P06276); read-out: remaining activity at 100 µM; molecule: "CC(C)C[C@H](NC(=O)Cc1ccc2oc(C#N)nc2c1)B1O[C@@H]2C[C@@H]3C[C@@H](C3(C)C)[C@]2(C)O1"
Reply: 45%

Ask: Form entry - test system: hBChE (Homo sapiens, UniProt P06276); read-out: remaining activity at 100 µM; molecule: "CC(C)C[C@H](NC(=O)CCn1c(C#N)nc2ccccc21)B1O[C@@H]2C[C@@H]3C[C@@H](C3(C)C)[C@]2(C)O1"
Reply: > 50%

Ask: Form entry - test system: hBChE (Homo sapiens, UniProt P06276); read-out: remaining activity at 100 µM; molecule: "CC(C)C[C@H](NC(=O)Cc1ccc2oc(C#N)nc2c1)B(O)O"
Reply: 33%

Ask: Form entry - test system: hBChE (Homo sapiens, UniProt P06276); read-out: remaining activity at 100 µM; molecule: "N#Cc1nc2cc(O)ccc2o1"
Reply: > 50%

Ask: Form entry - test system: hBChE (Homo sapiens, UniProt P06276); read-out: remaining activity at 100 µM; molecule: "CC(C)C[C@H](NC(=O)CCn1c(C#N)nc2ccccc21)B(O)O"
Reply: > 50%

Ask: Form entry - test system: hBChE (Homo sapiens, UniProt P06276); read-out: remaining activity at 100 µM; molecule: "CC(=O)Oc1cccc2oc(C#N)nc12"
Reply: > 50%

Ask: Form entry - test system: hBChE (Homo sapiens, UniProt P06276); read-out: remaining activity at 100 µM; molecule: "CC(C)C[C@H](NC(=O)CCCn1c(C#N)nc2ccccc21)B(O)O"
Reply: > 50%

Ask: Form entry - test system: hBChE (Homo sapiens, UniProt P06276); read-out: remaining activity at 100 µM; molecule: "CC(=O)Oc1ccc2oc(C#N)nc2c1"
Reply: > 50%

Ask: Form entry - test system: hBChE (Homo sapiens, UniProt P06276); read-out: remaining activity at 100 µM; molecule: "N#Cc1nc2c(O)cccc2o1"
Reply: > 50%

Ask: Form entry - test system: hBChE (Homo sapiens, UniProt P06276); read-out: remaining activity at 100 µM; molecule: "CC(C)C[C@H](NC(=O)CCn1c(C#N)nc2cccc(Cl)c21)B1O[C@@H]2C[C@@H]3C[C@@H](C3(C)C)[C@]2(C)O1"
Reply: > 50%

Ask: Form entry - test system: hBChE (Homo sapiens, UniProt P06276); read-out: remaining activity at 100 µM; molecule: "C=Cc1nc(CC(=O)N[C@@H](CC(C)C)B2O[C@@H]3C[C@@H]4C[C@@H](C4(C)C)[C@]3(C)O2)cs1"
Reply: 27%

Ask: Form entry - test system: hBChE (Homo sapiens, UniProt P06276); read-out: remaining activity at 100 µM; molecule: "COc1cccc2oc(C#N)nc12"
Reply: 36%

###

test: HPLC-based stability assay in PBS; assay type: physicochemical; conditions: PBS pH 7.4
Quantity: Stability in Buffer (HPLC-based assay)

COc1ccc2oc(C#N)nc2c1 | stable ^c,d
CC(C)C[C@H](NC(=O)CCCn1c(C#N)nc2ccccc21)B1O[C@@H]2C[C@@H]3C[C@@H](C3(C)C)[C@]2(C)O1 | stable ^b,c
CC(C)C[C@H](NC(=O)CCn1c(C#N)nc2cccc(Cl)c21)B1O[C@@H]2C[C@@H]3C[C@@H](C3(C)C)[C@]2(C)O1 | stable ^b,c
COc1cccc2nc(C#N)oc12 | stable ^c,d
CC(C)C[C@H](NC(=O)Cc1ccc2oc(C#N)nc2c1)B1O[C@@H]2C[C@@H]3C[C@@H](C3(C)C)[C@]2(C)O1 | stable ^b,c

For the next question, use this compound.
Ask: // returns reported Stability in Buffer (HPLC-based assay) for input "N#Cc1nc2cc(NC(=O)c3ccccc3)ccc2o1"
Reply: stable ^c,d

###

Kindly state RA (%) at 10 µM, β5i for each of the entries shown.
biological target: β5i subunit of human iCP (Homo sapiens, UniProt P20618+P28062); construct: purchased Boston Biochem, Inc., Cambridge, MA, USA; test: Inhibition of β5i activity (RA at 10 µM, IC50, IC50 shift), Suc-LLVY-AMC; format: biochemical; conditions: 10 µM compound, 30 min pre-incubation, SDS activator
Enter your answer as a number in %; do not include the unit.

Ask: Form entry - test system: β5i subunit of human iCP (Homo sapiens, UniProt P20618+P28062); read-out: RA (%) at 10 µM, β5i; compound: Cc1ccc2nc(C#N)oc2c1 [Compound 5]
Reply: 81

Ask: Form entry - test system: β5i subunit of human iCP (Homo sapiens, UniProt P20618+P28062); read-out: RA (%) at 10 µM, β5i; compound: N#Cc1nc2cccc([N+](=O)[O-])c2o1 [Compound 19]
Reply: 82

Ask: Form entry - test system: β5i subunit of human iCP (Homo sapiens, UniProt P20618+P28062); read-out: RA (%) at 10 µM, β5i; compound: COc1ccc2oc(C#N)nc2c1 [Compound 7]
Reply: 84

###

Kindly state IC50 for each of the entries shown.
target: β1 subunit of human cCP (Homo sapiens, UniProt P28072+Q99436); construct: purchased Boston Biochem, Inc., Cambridge, MA, USA; assay: Inhibition of β1 activity (RA, IC50), Ac-nLPnLD-AMC; format: biochemical; settings: PA28α, 30 min pre-incubation
Enter your answer as a number in µM; do not include the unit.

Ask: // returns reported IC50 for input "CC(C)C[C@H](NC(=O)Cc1ccc2oc(C#N)nc2c1)B(O)O"
Reply: 3.7

Ask: // returns reported IC50 for input "CC(C)C[C@H](NC(=O)CCCn1c(C#N)nc2ccccc21)B(O)O"
Reply: 13

Ask: // returns reported IC50 for input "CC(C)C[C@H](NC(=O)Cc1ccc2oc(C#N)nc2c1)B1O[C@@H]2C[C@@H]3C[C@@H](C3(C)C)[C@]2(C)O1"
Reply: 2.9

Ask: // returns reported IC50 for input "C=Cc1nc(CC(=O)N[C@@H](CC(C)C)B2O[C@@H]3C[C@@H]4C[C@@H](C4(C)C)[C@]3(C)O2)cs1"
Reply: 4.8

Ask: // returns reported IC50 for input "CC(C)C[C@H](NC(=O)CCCCn1c(C#N)nc2ccccc21)B(O)O"
Reply: 23

Ask: // returns reported IC50 for input "CC(C)C[C@H](NC(=O)CCn1c(C#N)nc2ccccc21)B1O[C@@H]2C[C@@H]3C[C@@H](C3(C)C)[C@]2(C)O1"
Reply: 0.4

Ask: // returns reported IC50 for input "CC(C)C[C@H](NC(=O)CCn1c(C#N)nc2cccc(Cl)c21)B1O[C@@H]2C[C@@H]3C[C@@H](C3(C)C)[C@]2(C)O1"
Reply: 5

Ask: // returns reported IC50 for input "CC(C)C[C@H](NC(=O)CCCn1c(C#N)nc2ccccc21)B1O[C@@H]2C[C@@H]3C[C@@H](C3(C)C)[C@]2(C)O1"
Reply: 8.4

Ask: // returns reported IC50 for input "CC(C)C[C@H](NC(=O)CCn1c(C#N)nc2ccccc21)B(O)O"
Reply: 3.2
